Field: IC50. Provide a value for each of the compounds that follow.
- Target Or System: 11b-HSD1 (Homo sapiens, UniProt P28845)
- Sequence (P28845 whole entry): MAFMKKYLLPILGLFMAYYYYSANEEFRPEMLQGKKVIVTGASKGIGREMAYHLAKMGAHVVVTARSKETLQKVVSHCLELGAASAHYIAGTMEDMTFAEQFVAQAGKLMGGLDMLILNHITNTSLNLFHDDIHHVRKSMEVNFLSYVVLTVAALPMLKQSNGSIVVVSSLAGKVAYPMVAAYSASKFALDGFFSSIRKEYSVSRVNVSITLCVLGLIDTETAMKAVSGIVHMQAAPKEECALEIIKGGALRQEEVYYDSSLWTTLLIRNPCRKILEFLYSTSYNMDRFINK
- Assay: Enzymatic assay, 11b-HSD1 reductase activity (conversion of cortisone into cortisol)
- Type: biochemical
- Condition Set: pIC50 scored 1-3, read-out: [C1] HSD1-prot Reduct Score

What measured IC50 goes with O=C(NC1C2CC3CC(C2)CC1C3)C1(c2cccnc2)CCCC1 (centres unmarked) ? < 1 µM

What measured IC50 goes with COc1ccc(C(C)(C)C(=O)NC2C3CC4CC(C3)CC2C4)cc1 (centres unmarked) ? < 1 µM

What measured IC50 goes with CC(C)(C(=O)NC1C2CC3CC(C2)CC1C3)c1cccnc1 (centres unmarked) ? < 1 µM

What measured IC50 goes with CC(C)(C(=O)NC1C2CC3CC(C2)CC1(O)C3)c1ccccc1 (centres unmarked) ? > 10 µM

What measured IC50 goes with CC(C)(C(=O)NC1C2CC3CC(C2)CC1C3)c1ccc(F)cc1F (centres unmarked) ? > 10 µM

What measured IC50 goes with O=C(NC1C2CC3CC(C2)CC1C3)C1(c2ccncc2)CCCC1 (centres unmarked) ? > 10 µM

What measured IC50 goes with O=C(NC1C2CC3CC(C2)CC1C3)C1CCOc2ccccc21 (centres unmarked) ? < 1 µM

What measured IC50 goes with CN(C)CCCOc1cccc(C(C)(C)C(=O)NC2C3CC4CC(C3)CC2C4)c1 (centres unmarked) ? < 1 µM

What measured IC50 goes with CC(C)(C(=O)NC1C2CC3CC(C2)CC1C3)c1cccc(OCC(=O)O)c1 (centres unmarked) ? 1 to 10 µM

What measured IC50 goes with `COc1cc(C)cc(C(C)(C)C(=O)N[C@H]2[C@@H]3CC4C[C@H]2C[C@](F)(C4)C3)c1` ? > 10 µM

What measured IC50 goes with CCCOc1cccc(C(C)(C)C(=O)NC2C3CC4CC(C3)CC2C4)c1 (centres unmarked) ? > 10 µM

What measured IC50 goes with CC(C)(C(=O)NC1C2CC3CC(C2)CC1C3)c1cccc2ccccc12 (centres unmarked) ? < 1 µM

What measured IC50 goes with O=C(NC1C2CC3CC(C2)CC1C3)C1=CCCCc2ccccc21 (centres unmarked) ? < 1 µM

What measured IC50 goes with Cc1cccc(C(C)(C)C(=O)NC2C3CC4CC(C3)CC2C4)c1 (centres unmarked) ? < 1 µM
